System: Neuregulin-1 EGF-like domain
assayProcedure: binders of neuregulin-1 EGF-like domain, primary screen, biochemical, small-molecule microarray, 635 nm fluorescence (AID 1081);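 also: binding of the protein to compounds printed on small-molecule microarray slides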
experimentalConditions: small-molecule microarray binding, higher = more signal
Hi there, I'd appreciate the recorded composite z-score for every entry that follows.
Numbers only.

Worked examples follow.
molecule: COC(=O)C1=CC(CCCO)=CC(C2CC2)N(Cc2sc3ccccc3c2Cl)C=C1C(=O)OC (configuration not stated)
composite z-score: 1.08

molecule: COC(=O)c1c(CC[C@@H](CO)NC(=O)N[C@@H](Cc2ccccc2)Cn2cc(C3(O)CCCCC3)nn2)oc(C(C)=O)c1C(=O)OC
composite z-score: 0.862

molecule: COC(=O)[C@@]1(Cc2ccccc2)N=C(c2ccc(OCCCO)cc2)O[C@H]1c1ccccc1N=[N+]=[N-]
composite z-score: 1.33

Okay, here is my list. What is composite z-score for each of these?
1. COCCOC(=O)N1C(=O)[C@@]2(c3cc(C#CCC(C(=O)OC)C(=O)OC)ccc31)[C@H](C(=O)N1CCCCCCC1)[C@H]1C(=O)O[C@H](c3ccccc3)[C@H](c3ccccc3)N1[C@@H]2c1ccc(OCCO)cc1
2. CCOC(=O)[C@H]1C[C@H]2O[C@@]23C[C@H]1C(=O)N1CCCC1[C@@H]3O[Si](C)(C)C(C)(C)C (some centres not stated)
3. C=CC[C@@]1(C(=O)NCC(O)CO)N=C(c2ccc(OCCCO)cc2)O[C@@H]1c1ccccc1N=[N+]=[N-] (some centres not stated)
4. O=C1OCCC/C=C\[C@H]2OC34C=CCN(Cn5nnc6ccccc65)C(=O)[C@H]3N(CCCCCO)C(=O)[C@@H]4C12 (some centres not stated)

[1.36, -0.76, 1.3, 0.443]

----------
assayProcedure: modulators of S6 phosphorylation in cells, primary screen, cell-based, A549, cytoblot, luminescence, serum-stimulated (AID 1158);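 also: serum-stimulated A549 lung adenocarcinoma cells; signal is phosphorylated S6 detected by cytoblot immunostaining with HRP secondary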
experimentalConditions: A549 phospho-S6 cytoblot, 5 h, higher = more signal
Use 0.2 as the dividing line for z-score, with the line itself on the Satisfied side and lower values as Not satisfied.

Field: example entries. Status: answers known.
compound: CCCN1C(=O)[C@@]2(CCC(=O)OC(C)(C)C)N=C(c3ccc(OCCCO)cc3)O[C@H]2c2ccccc21
class: Satisfied

compound: C=CCNC(=O)[C@H]1[C@@H]2C(=O)O[C@@H](c3ccccc3)[C@@H](c3ccccc3)N2[C@@H](c2ccc(O)cc2)[C@]12C(=O)N(C(=O)OCCOC)c1ccc(C#CCCO)cc12
class: Not satisfied

compound: O=C1O[C@H](c2ccccc2)[C@H](c2ccccc2)N2[C@H]1[C@@H](C(=O)Nc1nc3ccccc3s1)[C@]1(C(=O)Nc3ccccc31)[C@H]2c1ccc(O)cc1
class: Not satisfied

compound: COc1cccc(C(=O)O[C@H]2CC[C@]3(C)C4=C(CCC3C2(C)C)[C@]2(C)CC[C@H]([C@H](C)CCCC(C)C)[C@@]2(C)CC4)c1 (stereo partly specified)
class: Satisfied

compound: CCOC(=O)C[C@H]1[C@H](OC(=O)c2ccc(-c3ccccc3)cc2)[C@@H](NC(=O)c2ccc(-c3ccccc3)cc2)c2cc(OCCCO)ccc2N1C(=O)Cc1ccc(OC)cc1
class: Satisfied

// switching to the query compound
In plain terms: is recorded z-score at least 0.2 for "COCCOC(=O)N1C(=O)[C@@]2(c3cc(C#CCC(C(=O)OC)C(=O)OC)ccc31)[C@H](C(=O)N1CCN(c3ncccn3)CC1)[C@H]1C(=O)O[C@H](c3ccccc3)[C@H](c3ccccc3)N1[C@@H]2c1ccc(OCCO)cc1" ?
Satisfied
